system: ACHN; test: NCI 60 cell line single dose screen (SRB); assay type: cell-based; conditions: Homo sapiens; ACHN (renal cancer), single dose 10^−5 M, 48 h; read-out: Growth inhibition percentage
measured-metric: inhibition at 10 µM (%)

>>> reading("Cc1ccc(Nc2ncnc3c2c(C)nn3-c2ccc(F)cc2)cc1")
-12.2
>>> reading("COc1cc(C=NNc2ncnc3c2c(C)nn3-c2ccc(F)cc2)ccc1O [Compound 10b]")
7.34
>>> reading("Cc1nn(-c2ccc(F)cc2)c2ncnc(Nc3ccc(F)c(Cl)c3)c12")
60.4
>>> reading("COc1ccc(N2CCN(c3ncnc4c3c(C)nn4-c3ccc(F)cc3)CC2)cc1")
-0.34
>>> reading("COc1cc(C=NNc2ncnc3c2c(C)nn3-c2ccc(F)cc2)cc(OC)c1OC [Compound 10c]")
4.01

----------
Below, each entry is listed with its recorded inhibition at 10 µM.
tested on: EKVX; experiment: NCI 60 cell line single dose screen (SRB); format: cell-based; conditions: Homo sapiens; EKVX (non-small cell lung cancer), single dose 10^−5 M, 48 h; read-out: Growth inhibition percentage
measured-metric: inhibition at 10 µM (%)

>>> reading("Cc1nn(-c2ccc(F)cc2)c2nc(N)nc(N)c12")
6.25
>>> reading("Cc1nn(-c2ccc(F)cc2)c2ncnc(Nc3ccc(F)c(Cl)c3)c12")
14.5
>>> reading("Cc1nn(-c2ccc(F)cc2)c2ncnc(N)c12")
19.1
>>> reading("COc1cc(C=NNc2ncnc3c2c(C)nn3-c2ccc(F)cc2)ccc1O [Compound 10b]")
12.4
>>> reading("Cc1nn(-c2ccc(F)cc2)c2ncnc(NN)c12")
17
>>> reading("Cc1nn(-c2ccc(F)cc2)c2ncnc(N3CCOCC3)c12")
19.5
>>> reading("Cc1nn(-c2ccc(F)cc2)c2ncnc(N3CCN(c4ccc(Cl)cc4)CC3)c12")
20.6
>>> reading("COc1cc(C=NNc2ncnc3c2c(C)nn3-c2ccc(F)cc2)cc(OC)c1OC [Compound 10c]")
10
>>> reading("Cc1nn(-c2ccc(F)cc2)c2nc[nH]c(=O)c12")
36.2
>>> reading("Cc1ccc(Nc2ncnc3c2c(C)nn3-c2ccc(F)cc2)cc1")
3.39
>>> reading("COc1ccc(N2CCN(c3ncnc4c3c(C)nn4-c3ccc(F)cc3)CC2)cc1")
7.21
>>> reading("Cc1nn(-c2ccc(F)cc2)c2ncnc(Cl)c12")
9.08

----------
The following compounds are listed with their measured inhibition at 10 µM values.
test system: RPMI-8226; test: NCI 60 cell line single dose screen (SRB); format: cell-based; details: Homo sapiens; RPMI-8226 (leukemia), single dose 10^−5 M, 48 h; read-out: Growth inhibition percentage
measured-metric: inhibition at 10 µM (%)

>>> reading("Cc1nn(-c2ccc(F)cc2)c2ncnc(N3CCN(c4ccc(Cl)cc4)CC3)c12 [Compound 8c]")
-8.37
>>> reading("COc1cc(C=NNc2ncnc3c2c(C)nn3-c2ccc(F)cc2)cc(OC)c1OC [Compound 10c]")
1.29
>>> reading("Cc1nn(-c2ccc(F)cc2)c2nc(N)nc(N)c12 [Compound 5]")
-3.69
>>> reading("Cc1nn(-c2ccc(F)cc2)c2ncnc(NN)c12 [Compound 9]")
-6.21
>>> reading("COc1ccc(N2CCN(c3ncnc4c3c(C)nn4-c3ccc(F)cc3)CC2)cc1 [Compound 8d]")
6.45
>>> reading("Cc1nn(-c2ccc(F)cc2)c2ncnc(Cl)c12 [Compound 6]")
2.21
>>> reading("Cc1ccc(Nc2ncnc3c2c(C)nn3-c2ccc(F)cc2)cc1 [Compound 7c]")
-4.47

----------
tested on: UO-31; assay: NCI 60 cell line single dose screen (SRB); format: cell-based; settings: Homo sapiens; UO-31 (renal cancer), single dose 10^−5 M, 48 h; read-out: Growth inhibition percentage
The molecules listed here are annotated with their inhibition at 10 µM.
measured-metric: inhibition at 10 µM (%)

>>> reading("Cc1nn(-c2ccc(F)cc2)c2ncnc(Nc3ccc(F)c(Cl)c3)c12")
25.5
>>> reading("COc1ccc(N2CCN(c3ncnc4c3c(C)nn4-c3ccc(F)cc3)CC2)cc1")
21.3
>>> reading("Cc1nn(-c2ccc(F)cc2)c2nc(N)nc(N)c12")
14.2
>>> reading("Cc1nn(-c2ccc(F)cc2)c2ncnc(N)c12")
11.3
>>> reading("Cc1nn(-c2ccc(F)cc2)c2ncnc(N3CCOCC3)c12")
5.57
>>> reading("COc1cc(C=NNc2ncnc3c2c(C)nn3-c2ccc(F)cc2)cc(OC)c1OC [Compound 10c]")
31.1
>>> reading("Cc1ccc(Nc2ncnc3c2c(C)nn3-c2ccc(F)cc2)cc1")
8.66

----------
tested on: K-562; assay: NCI 60 cell line single dose screen (SRB); format: cell-based; conditions: Homo sapiens, K562; K-562 (leukemia), single dose 10^−5 M, 48 h; read-out: Growth inhibition percentage
Catalogue of inhibition at 10 µM readings, one per entry.
measured-metric: inhibition at 10 µM (%)

>>> reading("Cc1nn(-c2ccc(F)cc2)c2ncnc(N3CCN(c4ccc(Cl)cc4)CC3)c12 [Compound 8c]")
11.4
>>> reading("COc1cc(C=NNc2ncnc3c2c(C)nn3-c2ccc(F)cc2)ccc1O [Compound 10b]")
24.2
>>> reading("Cc1nn(-c2ccc(F)cc2)c2ncnc(N3CCOCC3)c12 [Compound 8a]")
-3.68
>>> reading("COc1cc(C=NNc2ncnc3c2c(C)nn3-c2ccc(F)cc2)cc(OC)c1OC [Compound 10c]")
-3.02
>>> reading("Cc1nn(-c2ccc(F)cc2)c2nc(N)nc(N)c12 [Compound 5]")
-11.9
>>> reading("Cc1nn(-c2ccc(F)cc2)c2ncnc(Nc3ccc(F)c(Cl)c3)c12 [Compound 7d]")
1.78
>>> reading("Cc1nn(-c2ccc(F)cc2)c2ncnc(NN)c12 [Compound 9]")
-3.06
>>> reading("Cc1nn(-c2ccc(F)cc2)c2ncnc(Cl)c12 [Compound 6]")
15.4
>>> reading("COc1ccc(N2CCN(c3ncnc4c3c(C)nn4-c3ccc(F)cc3)CC2)cc1 [Compound 8d]")
-4
>>> reading("Cc1nn(-c2ccc(F)cc2)c2nc[nH]c(=O)c12 [Compound 3]")
1.69
>>> reading("Cc1ccc(Nc2ncnc3c2c(C)nn3-c2ccc(F)cc2)cc1 [Compound 7c]")
0.26
>>> reading("Cc1nn(-c2ccc(F)cc2)c2ncnc(N)c12 [Compound 4]")
1.98

----------
inhibition at 10 µM: recorded values
test system: NCI-H23; experiment: NCI 60 cell line single dose screen (SRB); type: cell-based; details: Homo sapiens; NCI-H23 (non-small cell lung cancer), single dose 10^−5 M, 48 h; read-out: Growth inhibition percentage
measured-metric: inhibition at 10 µM (%)

>>> reading("Cc1nn(-c2ccc(F)cc2)c2ncnc(N3CCOCC3)c12")
0.28
>>> reading("Cc1nn(-c2ccc(F)cc2)c2nc[nH]c(=O)c12")
4.09
>>> reading("Cc1nn(-c2ccc(F)cc2)c2ncnc(Nc3ccc(F)c(Cl)c3)c12")
7.53
>>> reading("COc1ccc(N2CCN(c3ncnc4c3c(C)nn4-c3ccc(F)cc3)CC2)cc1")
9.95
>>> reading("COc1cc(C=NNc2ncnc3c2c(C)nn3-c2ccc(F)cc2)cc(OC)c1OC [Compound 10c]")
14.2
>>> reading("COc1cc(C=NNc2ncnc3c2c(C)nn3-c2ccc(F)cc2)ccc1O [Compound 10b]")
9.39
>>> reading("Cc1nn(-c2ccc(F)cc2)c2ncnc(NN)c12")
19.1
>>> reading("Cc1ccc(Nc2ncnc3c2c(C)nn3-c2ccc(F)cc2)cc1")
4.63
>>> reading("Cc1nn(-c2ccc(F)cc2)c2ncnc(N3CCN(c4ccc(Cl)cc4)CC3)c12")
20.7

----------
tested on: COLO 205; test: NCI 60 cell line single dose screen (SRB); type: cell-based; conditions: Homo sapiens, COLO 205, 48 h; read-out: Growth inhibition percentage
measured-metric: inhibition at 10 µM (%)

>>> reading("Cc1ccc(Nc2ncnc3c2c(C)nn3-c2ccc(F)cc2)cc1")
-13.3
>>> reading("Cc1nn(-c2ccc(F)cc2)c2nc[nH]c(=O)c12")
-14.9
>>> reading("Cc1nn(-c2ccc(F)cc2)c2nc(N)nc(N)c12")
-13.5
>>> reading("COc1ccc(N2CCN(c3ncnc4c3c(C)nn4-c3ccc(F)cc3)CC2)cc1")
-7.56
>>> reading("Cc1nn(-c2ccc(F)cc2)c2ncnc(Nc3ccc(F)c(Cl)c3)c12")
-3.96
>>> reading("Cc1nn(-c2ccc(F)cc2)c2ncnc(N3CCN(c4ccc(Cl)cc4)CC3)c12")
-1.97
>>> reading("COc1cc(C=NNc2ncnc3c2c(C)nn3-c2ccc(F)cc2)ccc1O [Compound 10b]")
-4.39
>>> reading("Cc1nn(-c2ccc(F)cc2)c2ncnc(N3CCOCC3)c12")
-7.19
>>> reading("Cc1nn(-c2ccc(F)cc2)c2ncnc(Cl)c12")
-14.9
>>> reading("Cc1nn(-c2ccc(F)cc2)c2ncnc(NN)c12")
-11.7
>>> reading("Cc1nn(-c2ccc(F)cc2)c2ncnc(N)c12")
-18.4
>>> reading("COc1cc(C=NNc2ncnc3c2c(C)nn3-c2ccc(F)cc2)cc(OC)c1OC [Compound 10c]")
-6.78
